molecular target: T1, Human PD-1 (Swiss-Prot entry Q15116), full length, on cells (human, UniProt Q15116 21-288); assay: CELISA on CHO-K1.hPDCD1 cells
T1 construct: Full length open reading frame of hPD-1 stably expressed on CHO-K1 cells; also endogenous PD-1 on CD3/CD28-stimulated human CD3+ T cells and PD-1 on transfected Jurkat cells; also called hPD-1; hPDCD1
T1 sequence (Q15116 21-288, one chain of several): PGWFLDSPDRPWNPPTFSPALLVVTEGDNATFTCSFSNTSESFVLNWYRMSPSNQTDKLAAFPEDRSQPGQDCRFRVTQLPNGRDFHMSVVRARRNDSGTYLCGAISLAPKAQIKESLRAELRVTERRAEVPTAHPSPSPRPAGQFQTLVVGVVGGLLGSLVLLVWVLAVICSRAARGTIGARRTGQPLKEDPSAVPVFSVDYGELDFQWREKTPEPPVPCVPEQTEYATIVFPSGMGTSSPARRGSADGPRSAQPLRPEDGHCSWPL
Reported pEC50 values for the following binders.
In textbook form, pEC50 equals minus log to base ten of the concentration in mol/L.

These recorded examples may help you get a feel for the data.
>>> result("hPD1.29H5_I28D_T31D_L4 (antibody, V domains shown, Mutant of hPD1.29H5L4 (human IgG4 S241P kappa format of the parent)) VH: EVQLVQSGAEVKKPGASVKVSCKASGYDFTDYYIHWVKQAPGKGLEWIGWIFPGDVSTQYNEKFQDKATITVDKSASTAYMQLSSLRSEDTAVYYCTREAYDYAVYWGQGTLVTVSS VL: DIQMTQAPSSLSASVGDRVTITCKASQNVDTNVAWFQQKPGKAPKSLIFSASYRYSGVPSRFSGSGSGTDFTLTISSLQPEDFATYYCQQYNNYPFTFGGGTKLEIK")
9.40
>>> result("hPD1.29H5_I28D_L4 (antibody, V domains shown, Mutant of hPD1.29H5L4 (human IgG4 S241P kappa format of the parent)) VH: EVQLVQSGAEVKKPGASVKVSCKASGYDFTTYYIHWVKQAPGKGLEWIGWIFPGDVSTQYNEKFQDKATITVDKSASTAYMQLSSLRSEDTAVYYCTREAYDYAVYWGQGTLVTVSS VL: DIQMTQAPSSLSASVGDRVTITCKASQNVDTNVAWFQQKPGKAPKSLIFSASYRYSGVPSRFSGSGSGTDFTLTISSLQPEDFATYYCQQYNNYPFTFGGGTKLEIK")
9.52
>>> result("hPD1.29H5_A9P_K12V_I28T_T31S_L4 (antibody, V domains shown, Mutant of hPD1.29H5L4 (human IgG4 S241P kappa format of the parent)) VH: EVQLVQSGPEVVKPGASVKVSCKASGYTFTSYYIHWVKQAPGKGLEWIGWIFPGDVSTQYNEKFQDKATITVDKSASTAYMQLSSLRSEDTAVYYCTREAYDYAVYWGQGTLVTVSS VL: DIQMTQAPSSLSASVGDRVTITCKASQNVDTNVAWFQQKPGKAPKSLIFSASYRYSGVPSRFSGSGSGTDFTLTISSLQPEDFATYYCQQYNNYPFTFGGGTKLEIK")
9.52
>>> result("hPD1.29H5_A9P_I28T_T31S_L4 (antibody, V domains shown, Mutant of hPD1.29H5L4 (human IgG4 S241P kappa format of the parent)) VH: EVQLVQSGPEVKKPGASVKVSCKASGYTFTSYYIHWVKQAPGKGLEWIGWIFPGDVSTQYNEKFQDKATITVDKSASTAYMQLSSLRSEDTAVYYCTREAYDYAVYWGQGTLVTVSS VL: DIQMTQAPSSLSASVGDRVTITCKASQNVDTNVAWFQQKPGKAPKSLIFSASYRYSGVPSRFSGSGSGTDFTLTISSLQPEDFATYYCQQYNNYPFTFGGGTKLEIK")
9.52

Request: Need pEC50 of hPD1.29H5_T31D_L4 (antibody, V domains shown, Mutant of hPD1.29H5L4 (human IgG4 S241P kappa format of the parent)) VH: EVQLVQSGAEVKKPGASVKVSCKASGYIFTDYYIHWVKQAPGKGLEWIGWIFPGDVSTQYNEKFQDKATITVDKSASTAYMQLSSLRSEDTAVYYCTREAYDYAVYWGQGTLVTVSS VL: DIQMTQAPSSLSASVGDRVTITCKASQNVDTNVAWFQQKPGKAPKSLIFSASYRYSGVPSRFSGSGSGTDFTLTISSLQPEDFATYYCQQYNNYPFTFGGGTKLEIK , thanks.
Response: 9.40
